Reference for the values: patent US20100216795A1

- target desc: human TNIK (N-terminal segment, TNIK_N) (Homo sapiens, UniProt Q9UKE5)
- Construct: made in house; host or cells: Sf21 insect cells (baculovirus)
- Sequence (Q9UKE5 1-314): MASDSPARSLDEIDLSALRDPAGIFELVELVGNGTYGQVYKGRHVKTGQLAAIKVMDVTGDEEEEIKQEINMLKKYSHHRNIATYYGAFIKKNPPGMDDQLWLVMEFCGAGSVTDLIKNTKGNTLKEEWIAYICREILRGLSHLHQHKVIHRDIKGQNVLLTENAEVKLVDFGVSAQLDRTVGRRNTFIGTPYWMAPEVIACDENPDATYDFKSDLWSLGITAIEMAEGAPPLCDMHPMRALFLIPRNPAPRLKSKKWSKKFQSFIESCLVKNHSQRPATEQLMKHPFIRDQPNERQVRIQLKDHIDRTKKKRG
- experiment summary: TNIK kinase assay (mobility shift)
- Format: biochemical
- measurement parameters: 25 μM ATP, 1 h at room temperature
Parameter class (string): assigned from measured IC50. Ranges: low: < 10 nM; moderate: ≥ 10 nM and < 60 nM; high: ≥ 60 nM

Input: Kindly identify the class of CC(=O)Nc1ccc(C(=O)Nc2sc(Nc3ccc(F)cc3)nc2C(N)=O)cc1 .
Output: moderate

Input: Kindly identify the class of COc1ccc(Nc2nc(C(N)=O)c(NC(=O)c3ccc(NCCN4CCCCC4)cc3)s2)cc1 .
Output: low

Input: Kindly identify the class of CC(=O)Nc1ccc(C(=O)Nc2sc(Nc3ccccc3C)nc2C(N)=O)cc1 .
Output: moderate

Input: Kindly identify the class of CCC(CC)C(=O)Nc1sc(Nc2ccc(C)cc2)nc1C(N)=O .
Output: high

Input: Kindly identify the class of NC(=O)c1nc(Nc2cccnc2)sc1NC(=O)c1ccc(NCCO)cc1 .
Output: low

Input: Kindly identify the class of COc1cccc(C(=O)Nc2sc(Nc3ccccc3)nc2C(N)=O)c1 .
Output: high

Input: Kindly identify the class of COc1ccc(Nc2nc(C(N)=O)c(NC(=O)c3ccc(NCCN4CCCC4)cc3)s2)cc1 .
Output: low

Input: Kindly identify the class of Cc1ccc(Nc2nc(C(N)=O)c(NC(=O)c3cccc(Br)c3)s2)cc1 .
Output: high

Input: Kindly identify the class of COc1ccc(Nc2nc(C(N)=O)c(NC(=O)c3ccc(NC(=O)CN4CCN(C)CC4)cc3)s2)cc1 .
Output: moderate
